system: MS2 coat protein; experiment: apparent KD of MS2 coat protein; designed switch direction (-1 OFF switch, 1 ON switch): -1; higher = weaker reporter binding; details: input ligand: microRNA oligo, concentration not stated
Listed below: apparent KD of MS2 coat protein values for each entry.

ACAUGAGGAUCACCCAUGUGACCACGAUGGCUGAUGUAGAGACAGGAUAUGUGUGAAUAUCUAUCACAGAAGGGUCUUGACUGG [Deportation 54 - Jieux - Exclusion NG 3] (Eterna round: R96, puzzle: Exclusion NG 3) ... 25.7 nM

stdin: For the sequence shown here, UUAUUAAUUAAUAUUAUAAGAUCACAUGAGGAUCACCCAUGUCAGGAUAUCAGCUCGUUUAGAGCUGAGAAGGGACAAAUAAUA [ExNG3/15-B2] (Eterna round: R96, puzzle: Exclusion NG 3) , give the reported apparent KD of MS2 coat protein.
stdout: 187 nM

----------
Listed below: apparent KD of MS2 coat protein values for each entry.
system: MS2 coat protein; assay: apparent KD of MS2 coat protein; designed switch direction (-1 OFF switch, 1 ON switch): 1; higher = weaker reporter binding; settings: Eterna round: R95; input ligand: none
Unit nM implied. Number only.

Use the examples below as a reference point.
GGUCCAGCCUGAGCUGGACUACAGCAUGUACAUGAGGAUCACCCAUGUCAUGUACAAGAAUGUUGUUUGUCUUAAAA [Sensorship 8 - Jieux - Sensor for hsa-mir-208a] (puzzle: Sensor for hsa-mir-208a) ... 118
AAGUAACAUGAGGAUCACCCAUGUGAGGUGAGCGUAGGAUAUCGAGGAGGAAGGGUGGAGCGAGAAGGACGAGAGG [JR_SS1_Sub099] (puzzle: Same State 1) ... 471
GGUCCAGCCUGAGCUGGACAAAAGCAUGUACAUGAGGAUCACCCAUGUCAUGUACAAGCUUUUUGCUCGUCUUAAAG [Mat - hsa-mir-208a - 85] (puzzle: Sensor for hsa-mir-208a) ... 367

stdin: For the sequence shown here, AGUCCAGCCUGAGCUGGACAAAAGCAUGUACAUGAGGAUCACCCAUGUCAUGUACAAGCUUUUUGCUCGUUUUAAUA [Zipper 49 - 14] (puzzle: Sensor for hsa-mir-208a) , give the reported apparent KD of MS2 coat protein.
stdout: 679

stdin: For the sequence shown here, GGGUAGGAGCUACAGGAUAUAUAGAAGUUGACAUGAGGAUCACCCAUGUAAGGGUACGGAGGCGGAUAGAAGGGUAUGGGAGGUG [JR_SS2_Sub033] (puzzle: Same State 2) , give the reported apparent KD of MS2 coat protein.
stdout: 64.9

----------
Listed below: apparent KD of MS2 coat protein values for each entry.
system: MS2 coat protein; test: apparent KD of MS2 coat protein; higher = weaker reporter binding; settings: Eterna round: R107; input ligand: tryptophan 2.4 mM

UUAAUCUUAUAUGAAAACAUAUAAGCAGAAGGAGCGUGAUAAAACACAGGUAGGUCGCUGAAGGGAACAUGAGGAUCACCCAUGU [AstrosSSArgA#4] ... 28.4 nM
UUUUUUAUCAUGGCGUAUCGGAAAACCGAUACCAGUACAGAAAUGUACCCUUGGCAGCGGCGUUUUACAUGAGGAUCACCCAUGU [Ex Theophylline A 4] ... 14.9 nM

Next sequence, apparent KD of MS2 coat protein to be filled in.
stdin: Identify the measured apparent KD of MS2 coat protein of GGGCGAGUGGAGCGGCGUGCUCCGCUCCGUCGAGGACCGGUACGGCCGCCACUCGACAUGAGGAUCACCCAUGUGCGAGCUCGCG [#1 Exclusion - Tryptophan A Attempt #13 (HarryS)] for MS2 coat protein.
stdout: 180 nM
